- System: BTK (Homo sapiens)
- Test name: Degradation of BTK protein in Namalwa cells (Western blot; DC50, Dmax)
- Condition notes: BTK degradation; cell line not given
Here the recorded DC50 is given for each entry.

Before answering, review these 2 worked examples.
Nc1ncnc2c1c(-c1ccc(Oc3ccccc3)cc1)nn2C1CCN(C2CCN(C(=O)N3CCN(CCCN4CCC(c5ccc6c(c5)CN(C5CCC(=O)NC5=O)C6=O)CC4)CC3)CC2)CC1 (stereo not shown) = > 50 nM
NC(=O)c1c(-c2ccc(Oc3ccccc3)cc2)nn2c1NCC[C@H]2C1CCN(C(=O)N2CCC(CN3CCN(c4ccc5c(c4)CN(C4CCC(=O)NC4=O)C5=O)CC3)CC2)CC1 (stereo partly shown) = < 10 nM

Exam item: Hi! What's the reported DC50 for NC(=O)c1c(-c2ccc(Oc3ccccc3)cc2)nn2c1NCCC2C1CCN(CC2CCN(C(=O)N3CCC(CN4CCN(c5ccc6c(c5)C(=O)N(C5CCC(=O)NC5=O)C6=O)CC4)CC3)CC2)CC1 (stereo not shown) on BTK (Homo sapiens)?
Marked response: < 10 nM

Exam item: // query: NC(=O)c1c(-c2ccc(Oc3ccccc3)cc2)nn2c1NCC[C@H]2C1CCN(C2CCN(C(=O)N3CCC(CN4CCN(c5ccc6c(c5)CN(C5CCC(=O)NC5=O)C6=O)CC4)CC3)CC2)CC1 (stereo partly shown)
Marked response: 10 to 50 nM

Exam item: Check NC(=O)c1c(-c2ccc(Oc3ccccc3)cc2)nn2c1NCCC2C1CCN(CC2CCN(C(=O)N3CCN(c4ccc5c(c4)C(=O)N(C4CCC(=O)NC4=O)C5=O)CC3)CC2)CC1 (stereo not shown) too.
Marked response: > 50 nM

Exam item: Can you handle NC(=O)c1c(-c2ccc(Oc3ccccc3)cc2)nn2c1NCCC2C1CCN(C2CCN(C(=O)N3CCC(C4CCN(c5ccc6c(c5)C(=O)N(C5CCC(=O)NC5=O)C6=O)CC4)CC3)CC2)CC1 (stereo not shown) next?
Marked response: < 10 nM

Exam item: Try the compound NC(=O)c1c(-c2ccc(Oc3ccccc3)cc2)nn2c1NCC[C@H]2C1CCN(C(=O)N2CCN(CCN3CCC(c4ccc5c(c4)CN(C4CCC(=O)NC4=O)C5=O)CC3)CC2)CC1 (stereo partly shown)
Marked response: 10 to 50 nM

Exam item: Quick one: NC(=O)c1c(-c2ccc(Oc3ccccc3)cc2)nn2c1NCCC2C1CCN(C2CCN(CC3CCN(c4ccc5c(c4)CN(C4CCC(=O)NC4=O)C5=O)CC3)CC2)CC1 (stereo not shown)
Marked response: 10 to 50 nM

Exam item: // same read-out, input: NC(=O)c1c(-c2ccc(Oc3ccccc3)cc2)nn2c1NCCC2C1CCN(C2CCN(C(=O)N3CCC(CC4CCN(c5ccc6c(c5)CN(C5CCC(=O)NC5=O)C6=O)CC4)CC3)CC2)CC1 (stereo not shown)
Marked response: 10 to 50 nM

Exam item: Same lookup for Nc1ncnc2c1c(-c1ccc(Oc3ccccc3)cc1)nn2C1CCN(C2CCN(C(=O)N3CCN(CC4CCN(c5ccc6c(c5)C(=O)N(C5CCC(=O)NC5=O)C6=O)CC4)CC3)CC2)CC1 (stereo not shown) , please.
Marked response: 10 to 50 nM

###

- System: UniProt:Q06187
- Test name: BTK degradation, DC50 and Dmax of Table 1 (cell line not given)
- Type: cell-based
- Design: endogenous in cells
- Condition notes: concentration giving 50% reduction of BTK expression level
Endpoint name: DC50

Example cases with answers are listed next.
Nc1ncnc2c1c(-c1ccc(Oc3ccccc3)cc1)nn2[C@@H]1CCCN(C2CCN(C(=O)N3CCC(N4CCC(c5ccc6c(c5)C(=O)N(C5CCC(=O)NC5=O)C6=O)CC4)CC3)CC2)C1 (some centres unmarked) [Compound 165] = 10 to 50 nM
Nc1ncnc2c1c(-c1ccc(Oc3ccccc3)cc1)nn2C1CCCN(CCOCCN2CCN(c3ccc4c(c3)CN(C3CCC(=O)NC3=O)C4=O)CC2)C1 (centres unmarked) [Compound 8] = 10 to 50 nM
Nc1ncnc2c1c(-c1ccc(Oc3ccccc3)cc1)nn2[C@@H]1CCCN(C(=O)N2CCC(CN3CCC(c4ccc5c(c4)CN(C4CCC(=O)NC4=O)C5=O)CC3)CC2)C1 (some centres unmarked) [Compound 62] = 10 to 50 nM

Exam item: Could you share which DC50 value was measured for Nc1ncnc2c1c(-c1ccc(Oc3ccccc3)cc1)nn2[C@@H]1CCCN(C(=O)N2CCC(C3CCN(c4ccc5c(c4)CN(C4CCC(=O)NC4=O)C5=O)CC3)CC2)C1 (some centres unmarked) [Compound 50] ?
Marked response: 10 to 50 nM

Exam item: Then this compound: Nc1ncnc2c1c(-c1ccc(Oc3ccccc3)cc1)nn2C1CCCN(CCOCCN2CCC(c3ccc4c(c3)C(=O)N(C3CCC(=O)NC3=O)C4=O)CC2)C1 (centres unmarked) [Compound 15]
Marked response: 10 to 50 nM

Exam item: Param item: Nc1ncnc2c1c(-c1ccc(Oc3ccccc3)cc1)nn2C1CCN(C(=O)N2CCN(CCCC3CCN(c4ccc5c(c4)CN(C4CCC(=O)NC4=O)C5=O)CC3)CC2)CC1 (centres unmarked) [Compound 122]
Marked response: > 50 nM

Exam item: Then what about the compound Nc1ncnc2c1c(-c1ccc(Oc3ccccc3)cc1)nn2C1CCCN(CCOCCOCCN2CCC(c3ccc4c(c3)C(=O)N(C3CCC(=O)NC3=O)C4=O)CC2)C1 (centres unmarked) [Compound 13] ?
Marked response: 10 to 50 nM

Exam item: Lookup Nc1ncnc2c1c(-c1ccc(Oc3ccccc3)cc1)nn2[C@@H]1CCCN(C2CCN(C(=O)N3CCC(CCN4CCC(c5ccc6c(c5)C(=O)N(C5CCC(=O)NC5=O)C6=O)CC4)CC3)CC2)C1 (some centres unmarked) [Compound 183]
Marked response: 10 to 50 nM

Exam item: Do the same for Nc1ncnc2c1c(-c1ccc(Oc3ccccc3)cc1)nn2C1CCN(C(=O)N2CCC(N3CCC(c4ccc5c(c4)CN(C4CCC(=O)NC4=O)C5=O)CC3)CC2)CC1 (centres unmarked) [Compound 84] please
Marked response: > 50 nM

Exam item: Now this one: Nc1ncnc2c1c(-c1ccc(Oc3ccccc3)cc1)nn2C1CCN(C(=O)N2CCN(CCC3CCN(c4ccc5c(c4)CN(C4CCC(=O)NC4=O)C5=O)CC3)CC2)CC1 (centres unmarked) [Compound 98]
Marked response: 10 to 50 nM

Exam item: Continue with Nc1ncnc2c1c(-c1ccc(Oc3ccccc3)cc1)nn2C1CCN(C(=O)N2CCC(CCN3CCC(c4ccc5c(c4)C(=O)N(C4CCC(=O)NC4=O)C5=O)CC3)CC2)CC1 (centres unmarked) [Compound 103]
Marked response: 10 to 50 nM

###

// values below are reported DC50
- System: UniProt:Q06187
- Test name: BTK degradation, DC50 and Dmax of Table 1 (cell line not given)
- Assay type: cell-based
- Set-up: endogenous in cells
- Condition notes: concentration giving 50% reduction of BTK expression level

Would you please look over these solved cases?
Nc1ncnc2c1c(-c1ccc(Oc3ccccc3)cc1)nn2C1CCN(C(=O)N2CCC(CCC3CCN(c4ccc5c(c4)C(=O)N(C4CCC(=O)NC4=O)C5=O)CC3)CC2)CC1 (centres unmarked) = 10 to 50 nM
Nc1ncnc2c1c(-c1ccc(Oc3ccccc3)cc1)nn2[C@@H]1CCCN(CC2CCN(C(=O)N3CCC(N4CCN(c5ccc6c(c5)CN(C5CCC(=O)NC5=O)C6=O)CC4)CC3)CC2)C1 (some centres unmarked) = 10 to 50 nM
Nc1ncnc2c1c(-c1ccc(Oc3ccccc3)cc1)nn2[C@@H]1CCCN(C2CCN(CCCN3CCC(c4ccc5c(c4)CN(C4CCC(=O)NC4=O)C5=O)CC3)CC2)C1 (some centres unmarked) = > 50 nM
Nc1ncnc2c1c(-c1ccc(Oc3ccccc3)cc1)nn2C1CCN(CCOCCC2CCN(c3ccc4c(c3)CN(C3CCC(=O)NC3=O)C4=O)CC2)CC1 (centres unmarked) = 10 to 50 nM

Could you now consider this next compound?
Exam item: Given the entry Nc1ncnc2c1c(-c1ccc(Oc3ccccc3)cc1)nn2C1CCN(C(=O)N2CCN(CCN3CCC(c4ccc5c(c4)CN(C4CCC(=O)NC4=O)C5=O)CC3)CC2)CC1 (centres unmarked) , what DC50 was observed with UniProt:Q06187?
Marked response: 10 to 50 nM

###

Dmax values for the molecules below.
- System: BTK (Homo sapiens, UniProt Q06187)
- Sequence (Q06187 whole entry): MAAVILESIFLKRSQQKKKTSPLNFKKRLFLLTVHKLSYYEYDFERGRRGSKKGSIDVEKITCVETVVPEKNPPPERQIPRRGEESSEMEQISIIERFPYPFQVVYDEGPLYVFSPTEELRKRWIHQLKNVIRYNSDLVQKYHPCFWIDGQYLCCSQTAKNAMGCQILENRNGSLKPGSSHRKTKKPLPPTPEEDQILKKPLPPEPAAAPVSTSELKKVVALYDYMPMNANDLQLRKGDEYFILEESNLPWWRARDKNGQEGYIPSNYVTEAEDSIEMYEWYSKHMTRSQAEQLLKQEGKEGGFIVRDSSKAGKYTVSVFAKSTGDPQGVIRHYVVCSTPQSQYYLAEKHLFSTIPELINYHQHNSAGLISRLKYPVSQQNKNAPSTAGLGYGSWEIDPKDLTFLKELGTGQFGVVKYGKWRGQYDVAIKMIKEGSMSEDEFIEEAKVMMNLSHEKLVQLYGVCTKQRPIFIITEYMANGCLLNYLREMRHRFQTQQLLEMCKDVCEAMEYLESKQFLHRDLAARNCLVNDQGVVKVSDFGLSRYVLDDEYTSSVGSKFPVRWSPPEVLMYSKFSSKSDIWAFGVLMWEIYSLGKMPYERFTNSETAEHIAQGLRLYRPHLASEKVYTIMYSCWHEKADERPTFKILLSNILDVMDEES
- Test name: Degradation of BTK protein in Namalwa cells (Western blot; DC50, Dmax)

Please review the following examples before continuing.
NC(=O)c1c(-c2ccc(Oc3ccccc3)cc2)nn2c1NCC[C@H]2C1CCN(CC2CCN(CCN3CCN(c4ccc5c(c4)C(=O)N(C4CCC(=O)NC4=O)C5=O)CC3)CC2)CC1 (stereo partly drawn) [Compound 331] = > 75%
NC(=O)c1c(-c2ccc(Oc3ccccc3)cc2)nn2c1NCCC2C1CCN(C(=O)N2CCN(CCC3CCN(c4ccc5c(c4)CN(C4CCC(=O)NC4=O)C5=O)CC3)CC2)CC1 (stereo not drawn) [Compound 284] = > 75%

From here, focus on the item given below.
Exam item: Value lookup for Dmax; key = NC(=O)c1c(-c2ccc(Oc3ccccc3)cc2)nn2c1NCCC2C1CCN(C2CCN(CC3CCN(c4ccc5c(c4)C(=O)N(C4CCC(=O)NC4=O)C5=O)CC3)CC2)CC1 (stereo not drawn) [Compound 305]
Marked response: > 90%
